List of ΔTm tested on Cyclin-dependent kinase 16 (Homo sapiens) (UniProt Q00536).
Sequence (Q00536 whole entry): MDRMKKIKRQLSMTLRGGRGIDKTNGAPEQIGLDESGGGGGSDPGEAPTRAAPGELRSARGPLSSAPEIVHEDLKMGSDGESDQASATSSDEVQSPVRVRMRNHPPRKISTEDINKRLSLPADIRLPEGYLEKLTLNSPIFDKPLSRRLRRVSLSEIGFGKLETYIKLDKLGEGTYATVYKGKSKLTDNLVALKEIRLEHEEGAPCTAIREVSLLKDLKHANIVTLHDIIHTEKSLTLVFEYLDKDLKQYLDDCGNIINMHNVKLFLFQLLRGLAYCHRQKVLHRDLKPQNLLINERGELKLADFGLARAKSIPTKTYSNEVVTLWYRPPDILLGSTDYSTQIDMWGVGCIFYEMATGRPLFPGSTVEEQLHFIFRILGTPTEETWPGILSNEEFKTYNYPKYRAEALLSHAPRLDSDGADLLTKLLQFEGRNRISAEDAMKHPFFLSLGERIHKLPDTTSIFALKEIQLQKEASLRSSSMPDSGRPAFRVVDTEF
Write it as a number; the unit °C goes unstated.

In: Give ΔTm (Cyclin-dependent kinase 16 (Homo sapiens) (UniProt Q00536)) of the following compound: Cc1cc(Nc2nc(-c3ccccc3)nc3ccccc23)n[nH]1
Out: 1.4

In: Give ΔTm (Cyclin-dependent kinase 16 (Homo sapiens) (UniProt Q00536)) of the following compound: NS(=O)(=O)c1ccc(Nc2nc(OCC3CCCCC3)c3nc[nH]c3n2)cc1
Out: 3.2

In: Give ΔTm (Cyclin-dependent kinase 16 (Homo sapiens) (UniProt Q00536)) of the following compound: Oc1ccc(-c2nc(-c3ccc(F)cc3)c(-c3ccncc3)[nH]2)cc1
Out: -0.4

In: Give ΔTm (Cyclin-dependent kinase 16 (Homo sapiens) (UniProt Q00536)) of the following compound: C[S+]([O-])c1ccc(-c2nc(-c3ccc(F)cc3)c(-c3ccncc3)[nH]2)cc1 (configuration not stated)
Out: -0.8

In: Give ΔTm (Cyclin-dependent kinase 16 (Homo sapiens) (UniProt Q00536)) of the following compound: COc1cc2ncnc(Nc3ccc(F)c(Cl)c3)c2cc1OCCCN1CCOCC1
Out: -0.3

In: Give ΔTm (Cyclin-dependent kinase 16 (Homo sapiens) (UniProt Q00536)) of the following compound: O=C(O)c1cc(N(Cc2ccccc2O)Cc2cc(O)ccc2O)ccc1O
Out: 0

In: Give ΔTm (Cyclin-dependent kinase 16 (Homo sapiens) (UniProt Q00536)) of the following compound: O=C1Nc2ccccc2/C1=C1/Nc2ccccc2/C1=N\O
Out: 8.9

In: Give ΔTm (Cyclin-dependent kinase 16 (Homo sapiens) (UniProt Q00536)) of the following compound: O=C(O)/C=C/c1cc(CO)ccc1CO
Out: -0.2

In: Give ΔTm (Cyclin-dependent kinase 16 (Homo sapiens) (UniProt Q00536)) of the following compound: COc1ccc(COc2ccc(Cc3cnc(N)nc3N)cc2OC)cc1
Out: 0.1

In: Give ΔTm (Cyclin-dependent kinase 16 (Homo sapiens) (UniProt Q00536)) of the following compound: Cn1cc(C2=C(c3cn(CCCN)c4ccccc34)C(=O)NC2=O)c2ccccc21
Out: 4.7

In: Give ΔTm (Cyclin-dependent kinase 16 (Homo sapiens) (UniProt Q00536)) of the following compound: O=C1NC(=O)C(c2c[nH]c3ccccc23)=C1c1c[nH]c2ccccc12
Out: 1.7

In: Give ΔTm (Cyclin-dependent kinase 16 (Homo sapiens) (UniProt Q00536)) of the following compound: COc1cc(OC)c(/C=C2\C(=O)Nc3ccccc32)c(OC)c1
Out: -0.7

In: Give ΔTm (Cyclin-dependent kinase 16 (Homo sapiens) (UniProt Q00536)) of the following compound: O=C(Nc1cccc(Nc2nccc(Nc3cccc(C(F)(F)F)c3)n2)c1)C1CC1
Out: 3.2

In: Give ΔTm (Cyclin-dependent kinase 16 (Homo sapiens) (UniProt Q00536)) of the following compound: O=S(=O)(c1cccc2c(Cl)cccc12)N1CCCNCC1
Out: -0.4

In: Give ΔTm (Cyclin-dependent kinase 16 (Homo sapiens) (UniProt Q00536)) of the following compound: OC[C@H]1O[C@@H](n2cnc3cc(Cl)c(Cl)cc32)[C@H](O)[C@@H]1O
Out: -0.3

In: Give ΔTm (Cyclin-dependent kinase 16 (Homo sapiens) (UniProt Q00536)) of the following compound: COc1nccc(-c2c(-c3ccc(F)cc3)ncn2[C@H]2CC[C@H](O)CC2)n1
Out: 0.6

In: Give ΔTm (Cyclin-dependent kinase 16 (Homo sapiens) (UniProt Q00536)) of the following compound: O=C1c2ccccc2-c2n[nH]c3cccc1c23
Out: 0.1

---

biological target: Mitogen-activated protein kinase 11 (Homo sapiens)
Sequence (Q15759 whole entry): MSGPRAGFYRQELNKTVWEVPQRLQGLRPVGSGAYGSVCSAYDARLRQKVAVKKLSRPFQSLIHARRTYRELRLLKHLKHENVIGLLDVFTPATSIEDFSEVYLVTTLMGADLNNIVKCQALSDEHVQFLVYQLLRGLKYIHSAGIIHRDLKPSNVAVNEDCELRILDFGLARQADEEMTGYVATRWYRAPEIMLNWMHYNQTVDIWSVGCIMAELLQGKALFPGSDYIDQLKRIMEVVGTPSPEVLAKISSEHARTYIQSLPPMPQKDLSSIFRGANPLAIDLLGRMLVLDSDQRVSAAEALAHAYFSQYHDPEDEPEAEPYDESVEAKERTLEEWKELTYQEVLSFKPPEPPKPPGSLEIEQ
Criterion: ΔTm meeting or surpassing 1 °C. Met: met. Not met: not met.

Illustrative cases are given below, each with its answer.
O=S(=O)(c1cccc2c(Cl)cccc12)N1CCCNCC1 = not met
N#C/C(=C1/Nc2ccccc2S1)c1ccnc(NCCc2cccnc2)n1 = met
Oc1ccc(-c2nc(-c3ccc(F)cc3)c(-c3ccncc3)[nH]2)cc1 = met
O=C1C=C2C(=Nc3c2c2c(c4c3=NC3=C4CCC=C3)C=NC=2)CC1 = met
Cc1ccc(NC2=CC(=O)c3sc(C)nc3C2=O)cc1 = not met
Cc1cc(C=C2C(=O)C=CC2=O)cc(C)c1O = met

In: Evaluate O=C1Nc2ccccc2/C1=C\c1ccc[nH]1 : ΔTm at minimum 1 °C?
Out: not met

In: Evaluate CC(C)[C@H](CO)Nc1nc(Nc2cc(N)cc(Cl)c2)c2ncn(C(C)C)c2n1 : ΔTm at minimum 1 °C?
Out: met

In: Evaluate CCOc1cc2ncnc(Nc3cccc(Br)c3)c2cc1OCC : ΔTm at minimum 1 °C?
Out: met

In: Evaluate COc1cc2ncnc(Nc3cccc(O)c3)c2cc1OC : ΔTm at minimum 1 °C?
Out: not met

---

List of ΔTm tested on STE20-like serine/threonine-protein kinase (Homo sapiens).
Write it as a number; the unit °C goes unstated.

Solved cases (3 shown):
NC(=O)c1ccc2[nH]c(-c3ccc(Oc4ccc(Cl)cc4)cc3)nc2c1 = 0
Cc1nc(N)sc1-c1ccnc(Nc2cccc([N+](=O)[O-])c2)n1 = 10
O=c1cc(-c2ccc(O)cc2)oc2cc(O)cc(O)c12 = 2.4

In: Give ΔTm (STE20-like serine/threonine-protein kinase (Homo sapiens)) of the following compound: NS(=O)(=O)c1ccc(Nc2nc(OCC3CCCCC3)c3nc[nH]c3n2)cc1
Out: 2.2

In: Give ΔTm (STE20-like serine/threonine-protein kinase (Homo sapiens)) of the following compound: Cc1cc(Nc2nc(-c3ccccc3)nc3ccccc23)n[nH]1
Out: 7.1

In: Give ΔTm (STE20-like serine/threonine-protein kinase (Homo sapiens)) of the following compound: CCN1/C(=C/C(C)=O)Sc2ccc(OC)cc21
Out: 0.7

In: Give ΔTm (STE20-like serine/threonine-protein kinase (Homo sapiens)) of the following compound: Cc1cncc2cccc(S(=O)(=O)N3CCCNC[C@@H]3C)c12
Out: 2.9

In: Give ΔTm (STE20-like serine/threonine-protein kinase (Homo sapiens)) of the following compound: CCN(CC)CCNC(=O)c1c(C)[nH]c(/C=C2\C(=O)Nc3ccc(Cl)cc32)c1C [SU-11652]
Out: 7.5

In: Give ΔTm (STE20-like serine/threonine-protein kinase (Homo sapiens)) of the following compound: Oc1ccc(-c2nc(-c3ccc(F)cc3)c(-c3ccncc3)[nH]2)cc1
Out: 4.4

In: Give ΔTm (STE20-like serine/threonine-protein kinase (Homo sapiens)) of the following compound: Cn1cc(/C=C2/C(=O)Nc3ccc(S(N)(=O)=O)cc32)c2ccccc21
Out: 8.4

---

Entries and their measured ΔTm follow.
target: Calcium/calmodulin-dependent protein kinase type II subunit beta (Homo sapiens) (UniProt Q13554)
Sequence (Q13554 whole entry): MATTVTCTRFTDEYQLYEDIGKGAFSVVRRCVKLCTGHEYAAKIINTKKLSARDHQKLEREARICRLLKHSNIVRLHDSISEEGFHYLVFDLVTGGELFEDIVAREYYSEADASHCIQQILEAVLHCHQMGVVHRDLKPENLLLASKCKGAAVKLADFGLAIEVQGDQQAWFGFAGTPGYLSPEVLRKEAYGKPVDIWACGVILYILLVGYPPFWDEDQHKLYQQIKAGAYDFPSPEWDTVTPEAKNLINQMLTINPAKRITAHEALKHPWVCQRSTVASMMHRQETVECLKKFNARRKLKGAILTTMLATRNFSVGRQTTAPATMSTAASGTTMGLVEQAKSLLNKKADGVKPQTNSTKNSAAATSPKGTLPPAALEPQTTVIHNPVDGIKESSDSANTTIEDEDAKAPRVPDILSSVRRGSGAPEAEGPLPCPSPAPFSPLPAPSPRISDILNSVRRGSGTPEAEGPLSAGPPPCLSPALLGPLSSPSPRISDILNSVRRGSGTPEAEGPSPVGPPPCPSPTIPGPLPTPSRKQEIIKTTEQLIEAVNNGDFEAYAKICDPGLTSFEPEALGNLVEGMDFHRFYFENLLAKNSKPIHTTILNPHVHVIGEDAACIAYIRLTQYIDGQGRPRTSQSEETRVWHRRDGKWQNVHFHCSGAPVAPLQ
Write it as a number; the unit °C goes unstated.

Solved cases (2 shown):
COc1ccc(COc2ccc(Cc3cnc(N)nc3N)cc2OC)cc1 = -0.2
Nc1cccc(-c2cc3c(Oc4cccc(O)c4)ncnc3[nH]2)c1 = 0.5

In: Give its ΔTm value. Item: CN(C)S(=O)(=O)c1ccc2c(c1)/C(=C/c1cc3c([nH]1)CCCC3)C(=O)N2
Out: 2.3

In: Give its ΔTm value. Item: O=C1Nc2cc(Br)ccc2/C1=C1/Nc2ccccc2/C1=N\O
Out: 0.8

In: Give its ΔTm value. Item: O=c1cc(N2CCOCC2)oc2c(-c3ccccc3)cccc12
Out: 0.5

In: Give its ΔTm value. Item: Cc1[nH]c(/C=C2\C(=O)Nc3ccc(S(=O)(=O)N(C)c4cccc(Cl)c4)cc32)c(C)c1C(=O)N1CCN(C)CC1
Out: 0.8

---

target: Serine/threonine-protein kinase PLK4 (Homo sapiens) (UniProt O00444)
Sequence (O00444 whole entry): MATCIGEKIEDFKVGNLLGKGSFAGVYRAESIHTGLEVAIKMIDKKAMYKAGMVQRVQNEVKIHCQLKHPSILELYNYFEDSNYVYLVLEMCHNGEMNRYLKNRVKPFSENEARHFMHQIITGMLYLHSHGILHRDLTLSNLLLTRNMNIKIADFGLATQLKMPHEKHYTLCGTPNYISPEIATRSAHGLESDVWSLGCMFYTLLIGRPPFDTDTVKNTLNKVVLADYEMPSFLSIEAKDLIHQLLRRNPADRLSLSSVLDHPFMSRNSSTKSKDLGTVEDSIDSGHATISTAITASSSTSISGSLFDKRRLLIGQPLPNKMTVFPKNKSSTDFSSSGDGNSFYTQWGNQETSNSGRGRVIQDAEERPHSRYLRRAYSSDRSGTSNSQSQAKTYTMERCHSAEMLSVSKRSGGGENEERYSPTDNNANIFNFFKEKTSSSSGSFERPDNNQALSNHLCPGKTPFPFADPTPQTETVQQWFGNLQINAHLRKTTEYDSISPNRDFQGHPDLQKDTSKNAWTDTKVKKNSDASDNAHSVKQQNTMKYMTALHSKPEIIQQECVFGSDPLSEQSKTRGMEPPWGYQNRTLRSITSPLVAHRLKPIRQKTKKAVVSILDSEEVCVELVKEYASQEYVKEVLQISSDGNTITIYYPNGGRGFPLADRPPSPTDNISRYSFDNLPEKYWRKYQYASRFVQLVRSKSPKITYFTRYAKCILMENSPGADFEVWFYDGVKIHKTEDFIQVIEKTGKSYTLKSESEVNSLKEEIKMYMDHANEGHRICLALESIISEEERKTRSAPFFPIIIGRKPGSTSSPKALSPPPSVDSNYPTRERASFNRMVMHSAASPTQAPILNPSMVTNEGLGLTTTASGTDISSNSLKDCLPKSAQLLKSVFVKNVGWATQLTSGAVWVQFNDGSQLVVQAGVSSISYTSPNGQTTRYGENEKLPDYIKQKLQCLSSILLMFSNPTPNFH
endpointLabel: ΔTm (°C)
Write it as a number; the unit °C goes unstated.

Solved cases (3 shown):
CCOC(=O)c1cnc2oc3ccc(O)cc3c2c1-c1ccccc1 = 2.8
CN(C)CCCn1cc(C2=C(c3c[nH]c4ccccc34)C(=O)NC2=O)c2ccccc21 = 3
O=C1Nc2ccc(S(=O)(=O)O)cc2/C1=C1/Nc2ccccc2/C1=N\O = 10.4

In: Give ΔTm (Serine/threonine-protein kinase PLK4 (Homo sapiens) (UniProt O00444)) of the following compound: CN(C)CC1CCn2c(c(C3=C(c4c[nH]c5ccccc45)C(=O)NC3=O)c3ccccc32)C1 (centres undefined)
Out: 0.1

In: Give ΔTm (Serine/threonine-protein kinase PLK4 (Homo sapiens) (UniProt O00444)) of the following compound: CC(C)n1cnc2/c(=N/c3cccc(Cl)c3)nc(NCCO)[nH]c21
Out: 1.3

In: Give ΔTm (Serine/threonine-protein kinase PLK4 (Homo sapiens) (UniProt O00444)) of the following compound: O=c1c2ccccc2[nH]c(=S)n1CCN1CCC(=C(c2ccc(F)cc2)c2ccc(F)cc2)CC1
Out: 0.8
